Readout: logP
In your answer, state the number alone without any accompanying words.

COc1ccc(CCC(=O)C2c3cccc(O)c3C(=O)c3c(O)cccc32)cc1OC    4.21
O=C1c2c(O)cccc2C(C(=O)/C=C/c2ccccc2)c2cccc(O)c21    4.6
COc1ccc(C=C2c3cccc(O)c3C(=O)c3c(O)cccc32)cc1OC    5.05
O=C1c2c(O)cccc2C(C(=O)Cc2ccc(O)cc2)c2cccc(O)c21    3.38
COc1ccc(CC(=O)C2c3cccc(O)c3C(=O)c3c(O)cccc32)cc1    4.2

# input compound: O=C1c2c(O)cccc2C(C(=O)/C=C/c2ccc([N+](=O)[O-])cc2)c2cccc(O)c21 ; wanted: its logP
4.23

// same read-out, input: O=C1c2c(O)cccc2C(C(=O)Cc2ccc(OCc3ccccc3)cc2)c2cccc(O)c21
5.01
